Source of measurements: patent US6103700A

target: Aβ25-35 peptide (Homo sapiens); assay: Antifibrillogenic activity, thioflavine T (ThT) assay with Aβ25-35 peptide; assay type: biochemical; conditions: compound 30 μM, Aβ25-35 peptide 100 μM, 50 μM phosphate buffer pH 5, 25° C., 24 hours; ThT 47 μM; ex 420 nm, em 490 nm; less fluorescence = less amyloid; read-out: ThT fluorescence (% of control)
API: label(entry) gives true (1) if the entry's remaining activity at 30 µM is strictly smaller than 30%; on equality or larger values it gives false (0).

molecule	category
COc1cccc2c1C(=O)c1c(O)c3c(c(O)c1C2=O)C[C@@](O)(C(=O)CO)C[C@@H]3O[C@H]1C[C@H](NC(=O)C(F)(F)F)[C@H](I)[C@H](C)O1	true (1)

Lab note: confirm whether the reported remaining activity at 30 µM for this molecule is below 30%, equality not counting. molecule: COc1cccc2c1C(=O)c1c(O)c3c(c(O)c1C2=O)C[C@@](O)(C(=O)CN(Cc1ccccc1)CC(F)(F)F)C[C@@H]3O
false (0)

Hello, is remaining activity at 30 µM of the following molecule strictly smaller than 30%? COc1cccc2c1C(=O)c1c(O)c3c(c(O)c1C2=O)C[C@@](O)(C(=O)CN1CCN(c2cccc(C(F)(F)F)c2)CC1)C[C@@H]3O
true (1)
